Each entry below carries its recorded IC50.
# TARGET SYSTEM: T1, human MSLN on the cell surface (human, UniProt Q13421 296-598)
# T1 construct: on cells stands the processed GPI-anchored 40 kDa MSLN; also called membrane MSLN; MSLN on H838, OVCAR-8 (OVCAR8), OVCAR-8 K1/C8, SK-OV-3 cells
# T1 sequence (Q13421 other isoform, or with tags, fused parts or gaps limits assumed): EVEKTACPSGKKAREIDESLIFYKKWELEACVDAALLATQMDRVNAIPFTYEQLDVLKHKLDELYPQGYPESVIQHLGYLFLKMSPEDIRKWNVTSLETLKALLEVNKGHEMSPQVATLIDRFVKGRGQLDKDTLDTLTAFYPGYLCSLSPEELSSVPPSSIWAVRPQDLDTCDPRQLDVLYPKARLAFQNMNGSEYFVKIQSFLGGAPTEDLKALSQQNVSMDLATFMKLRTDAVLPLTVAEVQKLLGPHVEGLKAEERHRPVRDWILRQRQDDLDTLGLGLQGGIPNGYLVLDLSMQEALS
# PROTOCOL: high content imaging, surface staining of OVCAR8 cells
Just the number in µg/mL, nothing appended.

The following binders have reported results that may help.
[
  {
    "BINDER": "MSLNB569 (antibody, V domains shown, mAb; also called MSLNB569.001; MSNB569) VH: QVQLQQSGPGLVKPSQTLSLTCAISGDSVSSTRAAWNWIRQSPSRGLEWLGRTYYRSKWYNDYTVSVKSRITINPDTSKNQFSLHLNSVTPEDSAVYFCARGNVGRVDFWGQGTLVTVSS VL: EIVMTQSPLSLPVTPGEPASISCRSSQSLLHSDGYNYLDWYLQKPGQSPQLLIYLGSNRASGVPDRFSGSGSDTDFTLKISRVEAEDVGVYYCMQGLRTPLTFGPGTKVDIK",
    "IC50 / µg/mL": 0.166
  },
  {
    "BINDER": "MSNB71 (antibody, V domains shown, mAb from Ablexis mouse; also called MSNB71.004) VH: QVQLQQSGPGLVMSSQTLSLTCAISGDSVSSSSVAWNWIRQSPSRGLQWLGRTYFRSKWYYDYAVSVKSRITINPDTSKNQFSLQLNSVTPEDTAVYYCSRGIVGALDYWGQGTLVTVSS VL: DIVMTQSPLSLPVTPGEPASISCRSSQSLLFTNGYDSLDWYLQKPGQSPQLLIYLVSNRASGVPDRFSGSGSGTEFTLKISRVEADDVGVYFCMQGIRTPFTFGPGTKLEIK",
    "IC50 / µg/mL": 0.0713
  }
]

Now take the following binder into account.
// query IC50 value for entry MSNB124 (antibody, V domains shown, mAb) VH: QVQLQQSGPGLVKPSQTLSLTCAISGDSVSSNSVAWHWIRQSPSRGLEWLGRTYHRSKWYNDYAVSVKSRITINPDTSKNQFSLQLNSVTPEDTAVYYCARQILGALDYWGQGTLVTVSS VL: DIVMTQTPLSLPVTPGEPASISCRSSQSLQFGNGNYLDWYLQKPGQSPQLLIYLGSNRASGVPDRFSGSGSGTDFTLKISRVEAEDVGVYYCMQVLQIPFTFGPGTKVDIK
0.0735
